These entries and their values trace back to the nanobody polyreactivity screen of Harvey et al. (2022).

- PROTOCOL NOTES: yeast display, Sf9 membrane polyspecificity reagent, FACS + sequencing; frameworks hold sequencing errors

RESIDUES: QVQLVESGGGLVQAGGSLRLSCAACGRTFYFYTMGWYRQAPGKERELVAAITRSGVSTYYADSVKGRFTISRDNAKNTVYLQMNSLKPEDTAVYYCAVRTWGYTQYYYWGQGTQVTVSS
polyreactivity (PSR sort gate): high polyreactivity

RESIDUES: QVQLVESGGGLVQAGGSLRLSCAASGFTFRAYTMGWYRQAPGTERGLVAAITYSGGRTYYADSVKGRFTISRDNAKNTVYLQMNSLKPEDTAVYYCAAVRTKVWRGPEMDYWGQGTQVTVSS
polyreactivity (PSR sort gate): high polyreactivity

RESIDUES: QVQLVESGGGLVQAGGSLRLSCAASGSTFDKYAMGWYRQAPGKERELVAAISSGSSTSYADSVKGRFTISRDNAKNTVYLQMNSLKPEDTAVYYCAAEVAESIEDDYWGQGTQVTVSS
polyreactivity (PSR sort gate): low polyreactivity

RESIDUES: QVHLVESGGVLVQAGGRLRLSCAAYGNIIGFNAMGWYRQAPGTERELVAAINSGGSTYYPDSVKGRFTISRDNAKNSVYLQMNSLKPEDSAVYYCAARVRIRGGGYDDWGQGTQVTVSS
polyreactivity (PSR sort gate): high polyreactivity

RESIDUES: QVQLVESGGGLVQAGGSLRLSCAASGSIFITYAMGWYRQAPGKERELVAAIRDSGDRTYYADSVKGRFTISRDNAKNTVYLQMNSLKPEDTAVYYCNARWQKPLKYDYWGQGTQVTVSS
polyreactivity (PSR sort gate): low polyreactivity

###

- PROTOCOL NOTES: yeast display, Sf9 membrane polyspecificity reagent, FACS + sequencing; frameworks hold sequencing errors

RESIDUES: QVQLVESGGGLVQAGGSLRLSCAASGSIFDVNAMGWYRQAPGKERELVAAISDSGGSTFYADSVKGRFTISRDNAKNTVYLQMNTLKPEDTGVYYCNTEDFFNVPEMDSWGQGTQVTVSS
polyreactivity (PSR sort gate): low polyreactivity
//
RESIDUES: QVQIVESVGGLVQAGGSLRLSCAASGSTFSGYAKGWYRQAPGKERELVAAISWRGVRTYYADSVKGRFTISRDNAKNTVYLQMNSLKPEDTAVYYCAAVRYIPKEFYWGQGTQVTVSS
polyreactivity (PSR sort gate): high polyreactivity
//
RESIDUES: QVQLVESGGGLVQAGGSLRLSCAASGSILDRYVMGWYRQAPGNGRELVSAITWSGSRTYYADSVKGRFTISRDNAKNTVYLQMNSLKPEDTAVYYCAKVIRRSSTLGNHYYWGQGTQVTVSS
polyreactivity (PSR sort gate): high polyreactivity
//
RESIDUES: QVQLVESGGGLVQAGGSLRLSCAASGSIFGRYVKGWYRQAPGKERELVATISSGGSTYYADSVKGRFTISRDNAKNTVYFQMISLKPEDTAVYYCAASYSRFVDWIGDPGYDYWGQGTQVTVSS
polyreactivity (PSR sort gate): low polyreactivity
//
RESIDUES: QVQLVESGGGLVQAGGSLRLSCAASGGTFSQYAMGWYRQAPGKERELVATISYSGTSTYYADSVKGRFTISRDNEKNTVYLHMNSLKPEDTAVYDCNIRWRWYRSDYYSWGQGTQVTVSS
polyreactivity (PSR sort gate): high polyreactivity
//
RESIDUES: QVQLVESGGGLVQAGGSLRLSCAASGFIFGRYAMGWYRQAPGKERELVAAITRSGGTTYYADSVKGRFTISRDNAKKTVYLQMYSLKPEDTAVYYCAAPRIYYTDDYWGQGTQVTVSS
polyreactivity (PSR sort gate): high polyreactivity
//
RESIDUES: QVQLVESGGGLVQAGGSLRLSCAASGSIFGTNAMGWYRQAPGKERELVAVISDGGSTYYADSVKGRFTISRDNAKNTVYLQMNSLKPEDTAVYYCNTPLESPFYSRFGTTESDHWGQGTQVTVSS
polyreactivity (PSR sort gate): low polyreactivity
//
RESIDUES: QVQLVESGGGLVQAGGSLRLSCAASGSIFPSNAMGWYRQAPGKERELVAAINRDGITNYADSVKGRFTISRDNAKNTVYLQMNSLKPEDTAVYYCAAEFAWQWWEYGYWGQGSQVTVSS
polyreactivity (PSR sort gate): low polyreactivity
//
RESIDUES: QVQLVESGGGLVQAGGSLRLSCAASGSTLSQNAMGWYRQAPGKEREFVADISGSGDSTYYADSVKGRFTISRDNAKNTVYLQMNSLKPEDTAVYYCAARSLVQDHAYGYNYWGQGTQVTVSS
polyreactivity (PSR sort gate): low polyreactivity
//
RESIDUES: QVQLVESGGGLVQAGGSLRLSCSASGNTIRYYALGWYRQAPGKERELVATITSGGRTYYADSVKGRFTISRDNAKNTVYLQMNSLKPEDTAVYYCAAGSRSDARRYYYWGQGTQVTVSS
polyreactivity (PSR sort gate): low polyreactivity
//
RESIDUES: QDQLVESGGRLVQAVGSLRLSCAASGRIFTDYTMGWYRQAHGKERELVAAISYSGGSTYYADSVKGRFTISRDNAKNTVYLQMNSLKPEDTAVYYCNKDYYVHDGYGYWGQGTQVTVSS
polyreactivity (PSR sort gate): low polyreactivity
//
RESIDUES: QVQLVESGGGLVQAGGSLRLSCTASGFTFFSNAMGWYRQAPVKEREFVASISRSGGRTYYADSVKGRFTISRDNEKNTVYLQMNSLKPEDTAVYYCAADVPYYLHNPRYGYWGQGTQVTVSS
polyreactivity (PSR sort gate): high polyreactivity
//
RESIDUES: QVQLVESGGGLVQAGGSLRLSCAAYGSTFYAYAMGWYRQAPGKERELVAAITYRDARTYYADSVKGRFTISRDNAKNTVYLQMISLKPEDTAVYYCARKTGFTVRRYDYWGQGTQVTVSS
polyreactivity (PSR sort gate): high polyreactivity
//
RESIDUES: QGQLVESGGGLVQAGGSLSLSCAASGFIFSGYAMGWYRQAPGKERELVAAISTRGGRTYYADSVKGRFTISRDNAKNTVYLQMNSLKPEDTAVYYCAADSLYPELDYWGQGTQVTVSS
polyreactivity (PSR sort gate): high polyreactivity
//
RESIDUES: QVQLVESGGGLVQAGGSLRLSCAASGTIFQQYAMGWYRQAPGKERELVAAISYSGGTTYYADSVKGRFTISRDNAKNTDYLEMNSLKPEDTAVYYCAAYYPSGSYDYYWGQGTQVTVSS
polyreactivity (PSR sort gate): low polyreactivity
//
RESIDUES: QVQLVESGGGLVQAGGSLRLSCAASGSIFDFYDMGWYRPAPGKERELVAAISSGGGSTYYADSVKGRFTISRDNAKNTVYLQMNSLKPEDTAVYYCAADLKGNYYLGIARYVLYYWGQGTQVTVSS
polyreactivity (PSR sort gate): low polyreactivity
//
RESIDUES: QVQLVESGGGLVQAGGSLRLSCAASGRTFRYNTMGWYRQAPGKERELVARINWSGGSTYYADSVKGRFTISRDNAKNTVYLQMNSLKPEDTAVYYCAAVPILVYRWFQSYTGDYDYWGQGTQVTVSS
polyreactivity (PSR sort gate): low polyreactivity
//
RESIDUES: QVQIVESGGGLEQAGGSLRLSCAASGRIFNRYAMGWYRQAPGKDWELVARNSWSGARTYYADSVKGRFTISRDNAKNTVYLQMNRLKPEDTAVSYCAAAVTYPAGGRTSLYEYWGQRTQVTVSS
polyreactivity (PSR sort gate): high polyreactivity
//
RESIDUES: QVQLVESGGGLVQAGGSLRLSCAASGRIFSLYAMGWYRQAPGKERELVAAISKRGGSTYYADSVKGRFTISRDNAKNTVYLQMNSLKPEDTAVYYCATQLPFRKPWHDYWGQGTQVTVSS
polyreactivity (PSR sort gate): high polyreactivity
//
RESIDUES: QVQLVESGGGLVQAGGSLRLSCAASGSIFLAYAMGWYRQAPGKEREFVAAISSRGGSTYYADSVKGRFTISRDNAKNTVYLQMNSLKPEDTAVYYCARYKYTRQTRVEYGYWGQGTQVTVSS
polyreactivity (PSR sort gate): high polyreactivity
//
RESIDUES: QVQLVESGGGLVQAGVSLRLSCAASGNAMGWYRQAPGKERELVAAITYGGTTTYYADSVKGRFTISRDNAKNTVYLQMNSLKPEDTAVYYCAADFVFVATPLRYDYWGQGTQVTVSS
polyreactivity (PSR sort gate): low polyreactivity
